Hey, just so you know, these numbers are from patent US9040563B2.

- Tested on: ASPC-1
- ASSAY SUMMARY: MTT proliferation/viability assay
- Assay type: cell-based, human
- ASSAY CONTEXT: ASPC-1, pancreas
- Protocol: To determine if FGTI-2734 is more efficacious than FT or GGT-1 inhibitors, 10 human cancer pancreatic cell lines, 2 human breast cancer cell lines, 2 human lung cancer cell lines and one human prostate cancer cell line were treated with these inhibitors and determined their effects on the proliferation of these cells by MTT assay.
ASSAY ENDPOINT: IC50

- STRUCTURE AS SMILES: "CSCC[C@H](NC(=O)c1ccc(CNCc2cnc[nH]2)cc1-c1ccccc1C)C(=O)O"
  ASSAY ENDPOINT: "IC50"
  MEASUREMENT: "> 100 µM"
